# Test system: MDA-MB-231 breast
# test protocol: NCI-60 one-dose screen, 48 h (100 = growth as untreated, 0 = no growth, -100 = all killed)
# applied conditions: 10 µM unless noted
The panel holds about 83,000 compounds, 20% with a hit somewhere; the sample as a whole holds those more often. Activity calls are given as the source filed them. Rule for the calls: active = growth percent below 10; inactive = the rest.
# growth per record follows

Completed entries (count: 2):
- entry smiles: "O=C1C=CC(O)=CC1=P(c1ccccc1)(c1ccccc1)c1ccccc1"
  target: "MDA-MB-231 breast"
  growth: "81.3% (inactive)"
- entry smiles: "C/C=C/c1cc2c(c(=O)o1)C(=O)[C@@H](O)[C@H](C)O2"
  target: "MDA-MB-231 breast"
  growth: "90.1% (inactive)"

Here's the next entry for you.
Prompt: Give recorded growth. CC(C)(C)c1ccc(O)c(Br)c1
Completion: 104% (inactive)

----------
# System: OVCAR-4 ovarian
# test protocol: NCI-60 one-dose screen, 48 h (100 = growth as untreated, 0 = no growth, -100 = all killed)
# applied conditions: 10 µM unless noted
About 83,000 compounds went through this panel and 20% of them were active in at least one assay; those are over-represented in the sample as a whole.
Note to self: use yes (1) only for growth readings below 90%; a reading exactly at 90% still gets no (0).

Previously resolved entries follow.
- compound: "CC(C)=C1C=C2CC[C@@H]3[C@](C)(CCC[C@@]3(C)C(=O)O)[C@H]2CC1"
  label value: "no (0)"
- compound: "OC(c1cc(C23CC4CC(CC(C4)C2)C3)nc2c(Cl)cc(Cl)cc12)C1CCCCN1 (stereo unspecified)"
  label value: "yes (1)"
- compound: "C=C(C(N)=O)C(N)C(=O)O (stereo unspecified)"
  label value: "no (0)"
- compound: "O=C1C=CC(O)=CC1=P(c1ccccc1)(c1ccccc1)c1ccccc1"
  label value: "no (0)"

Prompt: Decide: growth of CCCCCCCCCCCCCCCCSC(=NCC)NCC strictly below 90%?
Completion: yes (1)

----------
# Tested on: NCI-H460 lung
# test protocol: NCI-60 one-dose screen, 48 h (100 = growth as untreated, 0 = no growth, -100 = all killed)
# applied conditions: 10 µM unless noted
# Method: Growth inhibition of the NCI-H460 human Non-Small Cell Lung tumor cell line is measured as a screen for anti-cancer activity. Cells are grown in 96 well plates and exposed to the test compound for 48 hours. Compounds are tested at a single concentration, which is 10^-5 M for most compounds. The reported endpoint is percent growth (GI% or GIPRCNT), where numbers from 0 - 100% represent growth inhibition, and numbers from -100% - 0 represent cell death. […]
This is part of a sample that, as a whole, favours compounds with a hit. Of some 83,000 tested, about 20% had one in any assay. Calls of active or inactive are those of the source. The calls were made as follows: active = growth percent below 10; inactive = the rest.
measured parameter: growth

- entry smiles: "COc1cc(/C=C/c2ccnc3ccccc23)cc(OC)c1OC"
  endpoint value: "22.4% (inactive)"
- entry smiles: "O=C1C=CC(=O)c2c(O)c(CO)c(CO)c(O)c21"
  endpoint value: "102% (inactive)"

Prompt: Give growth for CN(C)CC(C)(CN(C)C)C(=O)/C=C/c1c(Cl)cccc1Cl
Completion: 57.9% (inactive)

----------
# Tested on: HS 578T breast
# test protocol: NCI-60 one-dose screen, 48 h
# applied conditions: 10 µM unless noted
Compounds without any hit were thinned out: in the full panel of roughly 83,000, 20% have a hit. Active and inactive are the calls of the source. The calls were made as follows: active = growth percent below 10; inactive = the rest.
Write down one outcome, taken from active, inactive

Reference set (2 entries):
- compound: "CC(C)c1ccc(Nc2n[nH]c(=S)s2)cc1"
  label value: "inactive"
- compound: "c1ccc(C2NCCNC2c2ccccc2)cc1 (centres undefined)"
  label value: "inactive"

Prompt: Name the outcome recorded for CCN(CC)CC(O)CNc1ccc(NCC2CO2)c2c1C(=O)c1ccccc1C2=O (centres undefined) in the assay.
Completion: active

Prompt: Check the results log: what was the call for CCc1cccc(CC)c1N1C(=O)C=CC1=O ?
Completion: inactive

Prompt: Tell me the recorded outcome of this test for Nc1nc(-c2ccccc2)nc(N)c1N=O .
Completion: inactive
